# Test system: HBV polymerase
# experiment: Inhibitory effect on the in vitro activities of HBV polymerase in reverse transcription (ELISA-type)
# Type: biochemical
# conditions.used: 0.1 μg/ml
endpoint.name: Inhibitory activity on HBV-RT (%)
One number for each entry, in %.

Can you give me Inhibitory activity on HBV-RT (%) for all of these, one by one?
1. Cc1ccc(C(=O)NCCCn2ccnc2)c(Nc2ccc3cn[nH]c3c2)n1
2. Cc1ccc(C(=O)NCCN(C)C)c(Nc2ccc3cn[nH]c3c2)n1

**A:**
59
60

###

# target.of.assay: HIV reverse transcriptase (Human immunodeficiency virus type 1 group M subtype B, UniProt P04585)
# Construct: purchased Boehringer Mannheim
# experiment: Inhibitory effect on the in vitro HIV reverse transcriptase activity (non-radioactive RT assay kit)
# Format: biochemical
# conditions.used: 1 μg/ml
endpoint.name: inhibition at 1 µg/mL (%)
Answers are plain numbers, in %.

Some solved entries appear below for comparison.
structure_smiles=Cc1ccc(C(=O)NN2CCOCC2)c(Nc2ccc3[nH]ncc3c2)n1 reported_result=84
structure_smiles=Cc1ccc(C(=O)NC(C)C)c(Nc2ccc3[nH]ncc3c2)n1 reported_result=75

For each listed entry, give its inhibition at 1 µg/mL.
1. Cc1ccc(C(=O)NC2CC2)c(Nc2ccc3cn[nH]c3c2)n1
2. Cc1ccc(C(=O)NC(C)C)c(Nc2ccc3cn[nH]c3c2)n1

**A:**
[82, 65]

###

Please provide measured Inhibitory activity on HBV-RT (%) for the entries that follow.
# Tested on: HBV polymerase
# experiment: Inhibitory effect on the in vitro activities of HBV polymerase in reverse transcription (ELISA-type)
# Assay type: biochemical
# conditions.used: 0.1 μg/ml
Numbers only, in %.

# count of solved cases: 3
structure_smiles=Cc1ccc(C(=O)N[C@H]2CC[C@H](O)CC2)c(Nc2ccc3[nH]ncc3c2)n1 endpoint_name="Inhibitory activity on HBV-RT (%)" reported_result=61
structure_smiles=Cc1ccc(C(=O)N(N)c2ccccn2)c(Nc2ccc3cn[nH]c3c2)n1 endpoint_name="Inhibitory activity on HBV-RT (%)" reported_result=50
structure_smiles=CCN(CC)CCNC(=O)c1ccc(C)nc1Nc1ccc2cn[nH]c2c1 endpoint_name="Inhibitory activity on HBV-RT (%)" reported_result=45

API: the following record is the query input.
**Q:** Which Inhibitory activity on HBV-RT (%) is listed for Cc1ccc(C(=O)NN2CCOCC2)c(Nc2ccc3[nH]ncc3c2)n1 ?
**A:** 57
